Could you please report measured inhibition at 1 µM for the items listed next?
- Tgt: human Kv1.3 (Homo sapiens, UniProt P22001)
- Construct: expressed in transfected cells
- Sequence (P22001 whole entry): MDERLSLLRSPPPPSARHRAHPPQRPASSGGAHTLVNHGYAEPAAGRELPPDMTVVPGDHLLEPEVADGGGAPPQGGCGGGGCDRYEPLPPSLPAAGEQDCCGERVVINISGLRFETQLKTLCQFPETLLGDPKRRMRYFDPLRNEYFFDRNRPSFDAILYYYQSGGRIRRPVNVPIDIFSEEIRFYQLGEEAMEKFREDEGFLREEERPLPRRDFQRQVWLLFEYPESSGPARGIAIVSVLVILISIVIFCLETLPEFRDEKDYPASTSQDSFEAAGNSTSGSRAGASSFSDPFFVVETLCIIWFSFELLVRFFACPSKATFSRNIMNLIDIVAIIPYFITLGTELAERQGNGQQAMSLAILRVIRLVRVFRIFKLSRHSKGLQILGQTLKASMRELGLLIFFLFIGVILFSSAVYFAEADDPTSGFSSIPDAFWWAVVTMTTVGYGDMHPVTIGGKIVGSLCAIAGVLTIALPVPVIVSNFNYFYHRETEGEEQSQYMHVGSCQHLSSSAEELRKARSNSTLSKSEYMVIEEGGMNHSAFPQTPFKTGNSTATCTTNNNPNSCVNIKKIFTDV
- Assay details: Kv1.3 Autopatch electrophysiology (whole cell)
- Assay type: cell-based
- Condition parameters: compound at 1 μM; inhibition of charge movement relative to control; room temperature; read-out: hKv1.3 % Inh.
Answers are plain numbers, in %.

1. CC(C)NC(=O)c1cccc(N(Cc2ccccc2)S(=O)(=O)c2cccnc2)c1 [Example 3]; 92
2. CC(=O)Nc1ccc(S(=O)(=O)N(Cc2ccccc2)c2cccc(C(=O)NC(C)C)c2)cc1 [Example 5]; 45
3. O=C(Nc1ccc2cn[nH]c2c1)c1cccc(N(Cc2ccccc2)S(=O)(=O)c2ccccc2)c1 [Example 4]; 88

# batch: return inhibition at 1 µM for each of the 2 compounds below
1. CC(C)NC(=O)c1cccc(N(Cc2ccc(Cl)cc2)S(=O)(=O)c2ccnn2C)c1 [Example 7]
2. Cn1ccc(S(=O)(=O)N(Cc2ccc(Cl)cc2)c2cccc(C(=O)NCCO)c2)n1 [Example 1]

57
86

Just for reference, patent US9447033B2 is where these values come from.
